Measured EC50 values are reported for all entries that follow.
# assayed system: T1, human tissue factor (TF), membrane-bound on cells (human, UniProt P13726 33-295)
# T1 construct: whole, on cells; also called cellular TF
# method summary: FACS, Bx-PC3 cells
Note: unit nM is implicit; provide only the numeric part.

// below: answered binders
binder | scale unit | obs value
anti-TF HuMab 101 (antibody, V domains shown, Human monoclonal antibody from HuMab mice) VH: EVQLLESGGGLVQPGGSLRLSCAASGFTFSNYAMSWVRQAPAKGLDWVSGISGSGVTTYYADSVKGRFTISRDNSKDTLYLQMNSLRAEDTAVYFCAKTPWGYYFDYWGQGILVAVSS VL: DIQMTQSPSSLSASVGDRVTITCRASQGISSWLAWYQQKPEKAPKSLIYAASSLQSGVPSRFSGSGSGTDFTLTISSLQPEDFATYYCQQYNSYPLYTFGQGTKLEIK | nM | 2.25
anti-TF HuMab 098 (antibody, V domains shown, Human monoclonal antibody from HuMab mice; also called HuMab-TF-098; HuMab-TF-98) VH: QVQLVQSGAEVRKPGSSVKVSCKASGGSFNNYPIFWVRQAPGQGFEWMGRIIPILGITAYAQKFQGRVTITADKSTSTAYMELNSLRSEDTAVYYCAGGDDLDAFDIWGQGTMVSVSS VL: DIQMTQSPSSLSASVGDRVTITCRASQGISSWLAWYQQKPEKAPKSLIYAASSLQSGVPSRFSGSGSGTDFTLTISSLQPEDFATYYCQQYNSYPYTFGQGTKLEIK | nM | 1.38

// next entry
Noted for anti-TF HuMab 111 (antibody, V domains shown, Human monoclonal antibody from HuMab mice) VH: QVQLVESGGGVVQPGRSLRLSCAGSGFTFNRYAMYWVRQAPGKGLDWVAVISNDGINKYYADSVKGRFTISRDNSKNTLYLQMNSLRAEDTAVYYCARDHTMVRGAFDYWGQGTLVTVSS VL: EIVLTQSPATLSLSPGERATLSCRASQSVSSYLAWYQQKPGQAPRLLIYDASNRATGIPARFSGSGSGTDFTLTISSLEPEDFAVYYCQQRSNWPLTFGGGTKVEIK : its EC50 reads 1.83
